system: rodent lifetime carcinogenesis bioassay, tumor incidence TD50; assay: carcinogenic potency in animals, long-term in vivo studies, CPDB compilation (AID 1745844); conditions: mouse; strain B6C3F1; females; in feed; site: liver; lesion: hepatocellular adenoma; dosed 38 weeks; study length 100 weeks
readout_kind: TD50 (mg/kg/day)
The response must be a number in mg/kg/day with no trailing unit.

Enquiry: Specify reported TD50 for the compound shown: CNc1ccc(N(CCO)CCO)cc1[N+](=O)[O-]
Return: 165

---

system: rodent lifetime carcinogenesis bioassay, tumor incidence TD50; test: carcinogenic potency in animals, long-term in vivo studies, CPDB compilation (AID 1745844); settings: rat; strain Fischer 344; males; in drinking water; site: liver; lesion: neoplastic nodule; dosed 75 weeks; study length 125 weeks
readout_kind: TD50

Enquiry: Fill in: TD50 on rodent lifetime carcinogenesis bioassay, tumor incidence TD50, entry O=NN(CCO)CCO
Return: 3.93 mg/kg/day

---

system: rodent lifetime carcinogenesis bioassay, tumor incidence TD50; assay: carcinogenic potency in animals, long-term in vivo studies, CPDB compilation (AID 1745844); conditions: mouse; strain Charles River CD1; females; by gavage; site: liver; lesion: hepatocellular carcinoma; dosed 92 weeks; study length 92 weeks
readout_kind: TD50 (mg/kg/day)
The response must be a number in mg/kg/day with no trailing unit.

Enquiry: Specify reported TD50 for the molecule shown: CC[C@H](C)C(=O)O[C@H]1C[C@@H](C)C=C2C=C[C@H](C)[C@H](CC[C@@H]3C[C@@H](O)CC(=O)O3)[C@H]21
Return: 2240

---

test system: rodent lifetime carcinogenesis bioassay, tumor incidence TD50; test: carcinogenic potency in animals, long-term in vivo studies, CPDB compilation (AID 1745844); settings: rat; strain Charles River CD (Sprague-Dawley); females; inhaled; site: liver; lesion: cholangiofibroma; dosed 105 weeks; study length 105 weeks
readout_kind: TD50

Enquiry: Specify reported TD50 for the compound shown: FC(F)(F)C(Cl)Cl
Return: 22700 mg/kg/day

---

tested on: rodent lifetime carcinogenesis bioassay, tumor incidence TD50; assay: carcinogenic potency in animals, long-term in vivo studies, CPDB compilation (AID 1745844); conditions: mouse; strain Swiss albino; females; in drinking water; site: liver; lesion: several types; types named in the paper; dosed 65 weeks; study length 73 weeks
readout_kind: TD50

Enquiry: Specify reported TD50 for the molecule shown: CN(N)C=O
Return: 10.4 mg/kg/day

---

tested on: rodent lifetime carcinogenesis bioassay, tumor incidence TD50; assay: carcinogenic potency in animals, long-term in vivo studies, CPDB compilation (AID 1745844); details: mouse; strain B6C3F1; females; inhaled; site: lung; lesion: alveolar/bronchiolar carcinoma; dosed 102 weeks; study length 104 weeks
readout_kind: TD50

Enquiry: Specify reported TD50 for the compound shown: ClCCl
Return: 1690 mg/kg/day

Enquiry: Specify reported TD50 for the compound shown: C1CO1
Return: 200 mg/kg/day

---

system: rodent lifetime carcinogenesis bioassay, tumor incidence TD50; assay: carcinogenic potency in animals, long-term in vivo studies, CPDB compilation (AID 1745844); conditions: rat; strain Fischer 344; females; in feed; site: liver; lesion: hepatocellular adenoma + hepatocellular carcinoma + neoplastic nodule; dosed 103 weeks; study length 106 weeks
readout_kind: TD50

Enquiry: Specify reported TD50 for the compound shown: Nc1cccc2c(N)cccc12
Return: 236 mg/kg/day

---

test system: rodent lifetime carcinogenesis bioassay, tumor incidence TD50; assay: carcinogenic potency in animals, long-term in vivo studies, CPDB compilation (AID 1745844); conditions: mouse; strain B6C3F1; females; inhaled; site: mammary gland; lesion: adenocarcinoma, NOS + adenosquamous carcinoma; dosed 102 weeks; study length 104 weeks
readout_kind: TD50

Enquiry: Specify reported TD50 for the compound shown: C1CO1
Return: 76.3 mg/kg/day
